# target-desc: T1, human cMet expressed on 3T3 cells (human, UniProt P08581 25-1390)
# T1 construct: whole, on cells; cells fixed with glutaraldehyde; also called cell surface-expressed human cMet; 3T3 cells that over-express human cMet
# T1 sequence (P08581 25-1390): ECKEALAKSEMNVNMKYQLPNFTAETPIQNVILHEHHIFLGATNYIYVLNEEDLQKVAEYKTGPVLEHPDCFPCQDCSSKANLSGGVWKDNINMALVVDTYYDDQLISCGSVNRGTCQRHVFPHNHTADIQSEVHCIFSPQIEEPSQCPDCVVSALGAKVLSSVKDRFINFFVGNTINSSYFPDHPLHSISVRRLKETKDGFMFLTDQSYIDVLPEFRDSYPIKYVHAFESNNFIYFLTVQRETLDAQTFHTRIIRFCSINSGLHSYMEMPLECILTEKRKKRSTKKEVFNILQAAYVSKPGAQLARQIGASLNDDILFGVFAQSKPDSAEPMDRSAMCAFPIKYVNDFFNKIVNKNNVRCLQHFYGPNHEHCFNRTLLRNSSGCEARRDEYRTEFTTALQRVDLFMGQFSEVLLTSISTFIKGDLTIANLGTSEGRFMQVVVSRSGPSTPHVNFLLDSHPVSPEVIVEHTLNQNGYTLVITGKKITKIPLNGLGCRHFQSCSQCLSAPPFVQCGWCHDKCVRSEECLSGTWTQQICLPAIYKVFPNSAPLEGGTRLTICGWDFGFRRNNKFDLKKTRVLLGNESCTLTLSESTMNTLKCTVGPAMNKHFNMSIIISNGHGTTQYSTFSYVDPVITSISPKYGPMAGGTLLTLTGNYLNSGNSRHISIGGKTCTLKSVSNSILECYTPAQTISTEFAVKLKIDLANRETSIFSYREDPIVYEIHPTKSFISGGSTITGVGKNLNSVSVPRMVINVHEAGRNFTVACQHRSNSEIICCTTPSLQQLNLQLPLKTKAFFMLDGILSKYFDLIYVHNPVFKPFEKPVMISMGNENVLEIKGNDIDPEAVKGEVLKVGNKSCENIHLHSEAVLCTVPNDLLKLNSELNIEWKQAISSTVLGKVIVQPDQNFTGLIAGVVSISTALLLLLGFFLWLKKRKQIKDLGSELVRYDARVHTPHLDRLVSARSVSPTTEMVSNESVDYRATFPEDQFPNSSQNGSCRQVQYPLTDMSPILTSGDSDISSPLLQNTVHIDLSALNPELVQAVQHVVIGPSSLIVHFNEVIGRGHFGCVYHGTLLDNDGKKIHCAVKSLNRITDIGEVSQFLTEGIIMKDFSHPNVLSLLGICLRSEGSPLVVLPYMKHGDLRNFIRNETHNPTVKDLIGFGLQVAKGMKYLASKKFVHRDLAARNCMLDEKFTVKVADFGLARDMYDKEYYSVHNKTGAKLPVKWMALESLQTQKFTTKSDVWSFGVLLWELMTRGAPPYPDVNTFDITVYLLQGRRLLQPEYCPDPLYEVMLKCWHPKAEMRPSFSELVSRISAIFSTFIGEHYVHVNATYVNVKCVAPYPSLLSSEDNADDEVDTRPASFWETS
# measurement-protocol: whole cell phage ELISA, 3T3 human cMet vs 3T3
experimental-readout: WC ELISA (fold over background) (fold)
Numbers only; they are read as fold.

Ask: Form field: reported WC ELISA (fold over background) of GDSYNCSWDSKTFEVTCLYADP [546-B01 peptide-displaying phage (SEQ ID NO: 393)]
Reply: 1.2

Ask: Form field: reported WC ELISA (fold over background) of GDYSECFFEPDSFEVKCYDRDP [545-H12 peptide-displaying phage (SEQ ID NO: 399)]
Reply: 1.3

Ask: Form field: reported WC ELISA (fold over background) of GDASMCYDGLALRWDQCWPHDP [531-E11 peptide-displaying phage (SEQ ID NO: 404)]
Reply: 1.3

Ask: Form field: reported WC ELISA (fold over background) of GSMLGCLFEHQNKYDCYVLAP [443-D04 peptide-displaying phage (SEQ ID NO: 379)]
Reply: 1.43

Ask: Form field: reported WC ELISA (fold over background) of AGDGWCMAWPEICEWLGT [434-E12 peptide-displaying phage (SEQ ID NO: 014)]
Reply: 1.33

Ask: Form field: reported WC ELISA (fold over background) of AGDIVCTGHPYFECWSWGT [333-C05 peptide-displaying phage (SEQ ID NO: 068)]
Reply: 1.33

Ask: Form field: reported WC ELISA (fold over background) of AQFMYEKEHYVMSISLPGLWFY [122-D07 peptide-displaying phage (SEQ ID NO: 486)]
Reply: 1.63

Ask: Form field: reported WC ELISA (fold over background) of AQVEDMATVHFKFNPATHEVIW [524-H02 peptide-displaying phage (SEQ ID NO: 492)]
Reply: 1.53

Ask: Form field: reported WC ELISA (fold over background) of GDYRMCQISDMWGNYECSSDDP [548-G05 peptide-displaying phage (SEQ ID NO: 400)]
Reply: 1.3

Ask: Form field: reported WC ELISA (fold over background) of AGGWECTGPPWFQCGYYGT [334-C08 peptide-displaying phage (SEQ ID NO: 067)]
Reply: 1.47

Ask: Form field: reported WC ELISA (fold over background) of GDGFLCRWENGWCEFWDP [545-E08 peptide-displaying phage (SEQ ID NO: 047)]
Reply: 1.3

Ask: Form field: reported WC ELISA (fold over background) of GSMNMCDTTDEISPTCHPSAP [441-H01 peptide-displaying phage (SEQ ID NO: 378)]
Reply: 1.4

Ask: Form field: reported WC ELISA (fold over background) of AQDNTADQMFNGFHVLAMYMV [117-E09 peptide-displaying phage (SEQ ID NO: 481)]
Reply: 1.37

Ask: Form field: reported WC ELISA (fold over background) of GSSTICPGTACVDHAP [574-H03 peptide-displaying phage (SEQ ID NO: 008)]
Reply: 1.27

Ask: Form field: reported WC ELISA (fold over background) of AGAWNCEYPTFICEWQGA [570-E07 peptide-displaying phage (SEQ ID NO: 012)]
Reply: 1.27

Ask: Form field: reported WC ELISA (fold over background) of GSRFHCWQGDLMQTYCMPMAP [452-A03 peptide-displaying phage (SEQ ID NO: 376)]
Reply: 1.3

Ask: Form field: reported WC ELISA (fold over background) of AGSYWCSGPPTFMCRYEGT [545-B12 peptide-displaying phage (SEQ ID NO: 085)]
Reply: 1.27

Ask: Form field: reported WC ELISA (fold over background) of AGFWDCGWMMQDCHMHGT [470-C02 peptide-displaying phage (SEQ ID NO: 045)]
Reply: 1.33

Ask: Form field: reported WC ELISA (fold over background) of AGWSDCLGPPQFTCVHWGT [552-A01 peptide-displaying phage (SEQ ID NO: 083)]
Reply: 1.33

Ask: Form field: reported WC ELISA (fold over background) of AGQMWCAEKNSKCYQWGT [465-D12 peptide-displaying phage (SEQ ID NO: 030)]
Reply: 1.27

Ask: Form field: reported WC ELISA (fold over background) of AGNYWCSGPPSFICHAVGT [549-D02 peptide-displaying phage (SEQ ID NO: 091)]
Reply: 1.27

Ask: Form field: reported WC ELISA (fold over background) of AGHFECPKHQYMCDMPGT [465-D04 peptide-displaying phage (SEQ ID NO: 042)]
Reply: 1.23

Ask: Form field: reported WC ELISA (fold over background) of GSFILCWWTFCDTNAP [569-C03 peptide-displaying phage (SEQ ID NO: 007)]
Reply: 1.3

Ask: Form field: reported WC ELISA (fold over background) of AQKETWEFFDIVYGSGWKFNSP [116-H02 peptide-displaying phage (SEQ ID NO: 466)]
Reply: 1.23

Ask: Form field: reported WC ELISA (fold over background) of AGYWDCKGPPHFFCEWHGT [552-G11 peptide-displaying phage (SEQ ID NO: 080)]
Reply: 1.23

Ask: Form field: reported WC ELISA (fold over background) of GDNRFCSWVYNVDDWWCVDNDP [332-H09 peptide-displaying phage (SEQ ID NO: 398)]
Reply: 1.3

Ask: Form field: reported WC ELISA (fold over background) of GSFNICPYQWCTLWAP [561-C08 peptide-displaying phage (SEQ ID NO: 010)]
Reply: 1.37

Ask: Form field: reported WC ELISA (fold over background) of AGWISCAGPPTFACWPGGT [548-F06 peptide-displaying phage (SEQ ID NO: 056)]
Reply: 1.23

Ask: Form field: reported WC ELISA (fold over background) of AGQFKCAGPPSFACWMTGT [333-F09 peptide-displaying phage (SEQ ID NO: 050)]
Reply: 1.43

Source listed as patent US20120039802A1.
